Give %Inh for every item shown.
test system: CDKL1; conditions: concentration: 1 μM, replicates: in singlicate; n = 1;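 also: KINOMEscan kinase panel screen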
Respond with the bare value in %.

Ask | Any idea what %Inh was measured for CCc1nc(-c2cccc(C)c2)c(-c2ccnc(NCc3ccccc3)c2)s1 ?
Reply | 13

Ask | Can you share its %Inh? I mean this compound: O=c1cc(N2CCOCC2)nc2n(Cc3cccc(Cl)c3Cl)c(C3CC3)nn12
Reply | 20

Ask | What measured %Inh goes with O=c1cc(N2CCOCC2)nc2n(Cc3cccc(C(F)(F)F)c3)ccn12 ?
Reply | 0

Ask | State the recorded %Inh for this entry: Cc1cccc(-c2nc(-c3ccc(S(C)(=O)=O)cc3)sc2-c2ccncc2)c1
Reply | 0

Ask | GET /values?readout=%Inh&item= O=c1cc(N2CCOCC2)nc2n(Cc3cccc4ccccc34)ccn12
Reply | 0

Ask | Which %Inh value belongs to c1ccc(-c2n[nH]cc2-c2ccnc3ccccc23)nc1 ?
Reply | 7

Ask | Tell me the measured %Inh of O=C1Cc2cc(Nc3nc(NCc4cccc(S(=O)(=O)C(F)(F)F)c4)ncc3C(F)(F)F)ccc2N1 , please.
Reply | 21

Ask | Which %Inh value is on record for CCc1ccnc(/C=C/c2n[nH]c3cc(Sc4ccccc4C(=O)NC)ccc23)c1 ?
Reply | 3

Ask | Which value of %Inh has been reported for COc1ccc(Nc2nccc(N3CCC(NC(=O)Nc4cccc(C(C)=O)c4)C3)n2)cc1 (stereo not drawn) in the records?
Reply | 1

* * *

test system: CDC2L5; construct: gene CDK13; conditions: concentration: 1 μM, replicates: in singlicate; n = 1
What %Inh was measured for each of the following?
Report as a plain number; the unit % is understood.

Ask | Missing value: %Inh, CDC2L5, entry NS(=O)(=O)c1cccc(-c2ccc3nccc(-c4cccc(S(N)(=O)=O)c4)c3c2)c1 . Fill in?
Reply | 0

Ask | Test system CDC2L5; read-out %Inh; what value for Cc1ccc(NC(=O)c2ccnc(N3CCN(C)CC3)c2)cc1-c1ccc(C(=O)NCC2CC2)cc1 ?
Reply | 0

Ask | GET /values?readout=%Inh&system=CDC2L5&item= COc1ccc(Nc2nccc(N3CCC(NC(=O)Nc4cc(C)ccc4C)C3)n2)cc1 (stereo not drawn)
Reply | 0

Ask | CDC2L5 / %Inh / CC(=O)Nc1ccc(COc2ccc(Nc3ccnc4cc(-c5ccccn5)ccc34)cc2)cc1.Cl : value?
Reply | 0

Ask | Hello, I am looking for reported %Inh with CDC2L5 for CC(C)Oc1ccc2c(-c3ccnc(Nc4ccc(N5CCN(C)CC5)cc4)n3)cnn2n1 . Could you help?
Reply | 0

Ask | %Inh of CN(C(=O)c1ccc(-c2cc(-c3c[nH]nc3-c3ccccn3)ccn2)cc1)C1CCOCC1 on CDC2L5?
Reply | 11

Ask | Give CDC2L5 %Inh for CCCCCc1nc2c(N)ncnc2n1CCCCC
Reply | 0

Ask | Value wanted: %Inh (CDC2L5) of entry Cc1c(Cn2c(C)nn3c(=O)cc(N4CCOC(C)C4)nc23)cccc1C(F)(F)F (stereo not drawn)
Reply | 0

Ask | What reported %Inh corresponds to Cc1c2ccc(N(C)c3ccnc(Nc4cccc(S(N)(=O)=O)c4)n3)cc2nn1Cc1ccccc1.Cl.Cl on CDC2L5?
Reply | 0

Ask | Provide value of %Inh for this record tested with CDC2L5: O=C(Nc1n[nH]c2cc(-c3cccc(F)c3)ccc12)C1CC1
Reply | 23

Ask | What is its %Inh for CDC2L5? Entry: COCCNC(=O)c1ccc(-c2cc(C(=O)NC3CC3)cc(F)c2C)cc1
Reply | 33

Ask | Provide value of %Inh for this record tested with CDC2L5: CCc1ccnc(/C=C/c2n[nH]c3cc(Sc4ccccc4C(=O)NC)ccc23)c1
Reply | 0

Ask | # returns recorded %Inh (system: CDC2L5) for CSc1ccc(-c2cc3ncnc(SCC(=O)O)c3s2)cc1
Reply | 0

Ask | Please state recorded %Inh (tested on CDC2L5) of O=c1cc(N2CCOCC2)nc2n(Cc3cccc4ccccc34)ccn12
Reply | 0

Ask | Please tell me: %Inh of [2H]C([2H])(c1cccc(C(F)(F)F)c1C)n1ccn2c(=O)nc(N3CCOCC3)cc12 , system CDC2L5?
Reply | 0

Ask | Recorded %Inh for CC(C)(C)n1cnc2c(N)ncnc21 with CDC2L5, please?
Reply | 0

Ask | Recorded %Inh for CCc1nc(-c2cccc(C)c2)c(-c2ccnc(NCc3ccccc3)c2)s1 with CDC2L5, please?
Reply | 11

Ask | Form entry - test system: CDC2L5; read-out: %Inh; compound: O=C(NOCC1CC1)c1ccc(F)c(F)c1Nc1ccc(I)cc1Cl
Reply | 0

* * *

system: PAK4; conditions: concentration: 1 μM, replicates: in singlicate; n = 1
Please go through the items and note down their %Inh.
State the answer as a number, implicitly in %.

Ask | Endpoint output: %Inh of NS(=O)(=O)c1cccc(-c2ccc3nccc(-c4cccc(S(N)(=O)=O)c4)c3c2)c1 [GW867253] . Value?
Reply | 0

Ask | What %Inh value was documented for this molecule, Cc1cccc(-c2nc(-c3ccc(S(C)(=O)=O)cc3)sc2-c2ccncc2)c1 ?
Reply | 10

Ask | Data request, read-out %Inh, for Cc1cccc(Cn2ccn3c(=O)cc(N4CCOCC4)nc23)c1 [GSK2297542]
Reply | 25

Ask | Quick one: %Inh for COc1ccc(COc2cc(-n3cnc4ccccc43)sc2C(N)=O)cc1 [GSK1024304] ?
Reply | 0

Ask | I would be grateful if you could share the reported %Inh for CC(C)(C)n1cnc2c(N)ncnc21 [SKF-97359] .
Reply | 21

Ask | # lookup: %Inh of N#Cc1ccc(-c2cc(-c3c[nH]nc3-c3ccccn3)ccn2)cc1 [GW693028]
Reply | 0

Ask | I would be grateful if you could share the reported %Inh for O=C(Nc1cccc(-c2nn3ncccc3c2-c2ccnc(Nc3cccc(C(F)(F)F)c3)n2)c1)c1c(F)cccc1F [GSK299495] .
Reply | 0

Ask | Entry under review: Cc1c(Cn2c(C)nn3c(=O)cc(N4CCOC(C)C4)nc23)cccc1C(F)(F)F (stereo not drawn) [GSK2344444] . Reported %Inh?
Reply | 0

Ask | Return reported %Inh; argument: COc1ccc(Nc2ncc(C#N)c(Nc3ccccc3C(N)=O)n2)cc1N1CCN(C)CC1.Cl [GSK1558669]
Reply | 99.2

* * *

test system: PFTK1; construct: gene CDK14; conditions: concentration: 1 μM, replicates: in singlicate; n = 1
Parameter threshold = 3%. Response is criterion met when %Inh meets or exceeds it, else criterion not met.

Ask | Hi team, for O=C1Cc2cc(Nc3nc(NCc4cccc(S(=O)(=O)C(F)(F)F)c4)ncc3C(F)(F)F)ccc2N1 , is the recorded %Inh at or above 3%?
Reply | criterion not met

Ask | Quick check: does COc1cc(Nc2nccc(N3CCC(NC(=O)c4cccc(NC(C)=O)c4)C3)n2)cc(OC)c1OC (centres unmarked) [GSK1379754] have %Inh greater than or equal to 3%?
Reply | criterion met

Ask | Item COc1ccc(Nc2ncc(C#N)c(Nc3ccccc3C(N)=O)n2)cc1N1CCN(C)CC1.Cl [GSK1558669] with %Inh of 3% or above?
Reply | criterion met

Ask | # bool: %Inh of CN1c2ccc(CNc3ccc(F)cc3)cc2-c2c(cnn2C)S1(=O)=O >= 3%
Reply | criterion not met

Ask | Please indicate if the recorded %Inh for O=c1cc(N2CCOCC2)nc2n(Cc3cccc(Cl)c3Cl)c(C3CC3)nn12 [GSK2358994] meets or exceeds 3%.
Reply | criterion not met

Ask | Reported %Inh at or above 3%? CCc1nc(-c2cccc(C)c2)c(-c2ccnc(NCc3ccccc3)c2)s1
Reply | criterion not met

Ask | Hi team, for c1ccc(-c2cc(-c3c[nH]nc3-c3ccccn3)ccn2)cc1 [GW576604] , is the recorded %Inh at or above 3%?
Reply | criterion met

Ask | Quick check: does Fc1ccc(-c2ncn(CCCN3CCOCC3)c2-c2cccnc2)cc1 [SB-211743] have %Inh greater than or equal to 3%?
Reply | criterion not met

Ask | Kindly determine if %Inh recorded for CN(C(=O)c1ccc(-c2cc(-c3c[nH]nc3-c3ccccn3)ccn2)cc1)C1CCOCC1 [GW810083] is above or exactly 3%.
Reply | criterion not met

Ask | Is %Inh at least 3%? Consider COc1cc2c(cc1OCCN1CCN(C)CC1)ncc1c3ccc(C#N)cc3[nH]c21
Reply | criterion met

Ask | hey, is %Inh for this one >= 3%? Cn1ccc2ncnc(Oc3ccc(NC(=O)Nc4ccncc4)c(Cl)c3)c21
Reply | criterion not met

Ask | Is it the case that O=C(NCCCN1CCOCC1)c1cccc(Nc2nccc(Nc3ccc(Oc4ccccc4)cc3)n2)c1 [GW663929] has %Inh reaching or exceeding 3%?
Reply | criterion met

Ask | %Inh >= 3% for NCC(NC(=O)c1cc(-c2cn[nH]c2)c(-c2ccnc3[nH]ccc23)s1)c1ccccc1.O=C(O)C(F)(F)F.O=C(O)C(F)(F)F (centres unmarked) [GSK1325775] ?
Reply | criterion met

Ask | Exam item: decide whether the reported %Inh for CNc1ncnc2[nH]ncc12 [SKF-18355] is at least 3%.
Reply | criterion not met

Ask | Kindly determine if %Inh recorded for N#Cc1c(N2CCOCC2)sc(-c2ccn[nH]2)c1-c1ccc(Cl)cc1 is above or exactly 3%.
Reply | criterion met

Ask | Textbook exercise: given the entry O=C(c1ccc(-c2cc(-c3c[nH]nc3-c3ccccn3)ccn2)cc1)N1CCOCC1 [GW812171] , state whether its %Inh is greater than or equal to 3%.
Reply | criterion met

Ask | Form field: %Inh at least 3%? Entry: CC(C)(C)n1cnc2c(N)ncnc21 [SKF-97359]
Reply | criterion not met

Ask | Hello, I need to know if Nc1nc(-c2ccc3c(N)n[nH]c3c2)cc(N2CCCC2)n1 [GSK2227430] has measured %Inh not below 3%. Thanks!
Reply | criterion not met
